system: HCV replicon, genotype 1a L31V variant with leucine 31 changed to valine in the NS5A protein; format: cell-based; details: genotype 1a L31V replicon; test compound titrated with compound N47 fixed at 200 nM versus titrated singly
EXPERIMENTAL_READOUT: Fold - Synergistic G-1a (L31V)

Take a look at these entries with their results.
COMPOUND	Fold - Synergistic G-1a (L31V)
COC(=O)N[C@H](C(=O)N1CCCC1c1nc2ccc(C#CC#Cc3ccc4nc([C@@H]5CCCN5C(=O)[C@@H](NC(=O)OC)C(C)C)[nH]c4c3)cc2[nH]1)C(C)C (some centres unmarked)	>100 Fold
O=C(Cc1ccccc1)N1CCCC1c1nc2cc(-c3ccc4nc([C@@H]5CCCN5C(=O)Cc5ccccc5)[nH]c4c3)ccc2[nH]1 (some centres unmarked)	<10 Fold

Need Fold - Synergistic G-1a (L31V), item COC(=O)N[C@H](C(=O)N1CC[C@H](C)C1c1ncc(-c2ccc(-c3ccc(-c4cnc([C@@H]5[C@@H](C)CCN5C(=O)[C@@H](NC(=O)OC)C(C)C)[nH]4)cc3)cc2)[nH]1)C(C)C (some centres unmarked)
>100 Fold

Need Fold - Synergistic G-1a (L31V), item `COC(=O)N[C@H](C(=O)CN1[C@@H]2C[C@@H]2C[C@H]1c1nc2ccc3cc(C#Cc4ccc5c(ccc6nc([C@@H]7C[C@H]8C[C@H]8N7C(=O)[C@@H](NC(=O)OC)C(C)C)[nH]c65)c4)ccc3c2[nH]1)C(C)C`
>10 Fold

Need Fold - Synergistic G-1a (L31V), item COC(=O)N[C@H](C(=O)N1CCCC1c1cn(-c2ccc(-c3ccc(-n4cnc([C@@H]5CCCN5C(=O)[C@@H](NC(=O)OC)C(C)C)c4)cc3)cc2)cn1)C(C)C (some centres unmarked)
>10 Fold
